tested on: LDLs of the Watanabe rabbits; assay: Ex vivo copper sulphate oxidation of LDLs from orally treated Watanabe rabbits (MDA production); type: in vivo; details: 250 mg/kg/day oral, 3 days; 6 hours incubation with copper sulphate
measurement-label: MDA production

Would you be so kind as to report MDA production for each listed record?
1. CC(C)(C)c1cc(SCCCN2CCC3(CC2)CNC(=O)O3)cc(C(C)(C)C)c1O
2. CC(C)(C)c1cc(SCC(O)CN2CCC3(CC2)CNC(=O)O3)cc(C(C)(C)C)c1O (racemic)
3. CC(C)(CCN1CCC2(CC1)CNC(=O)O2)Sc1cc(C(C)(C)C)c(O)c(C(C)(C)C)c1

["0 nM/mg proteins", "0 nM/mg proteins", "0.16 nM/mg proteins"]

The recorded MDA production for CC(C)(Sc1cc(C(C)(C)C)c(O)c(C(C)(C)C)c1)Sc1cc(C(C)(C)C)c(O)c(C(C)(C)C)c1 [probucol, reference compound] is 4.90 nM/mg proteins

----------
system: LDLs of the Watanabe rabbits; test: Ex vivo copper sulphate oxidation of LDLs from orally treated Watanabe rabbits (MDA production); assay type: in vivo; conditions: 250 mg/kg/day oral, 3 days; 4 hours incubation with copper sulphate
measurement-label: MDA production (nM/mg proteins)
Answers are plain numbers, in nM/mg proteins.

compound: CC(C)(CCN1CCC2(CC1)CNC(=O)O2)Sc1cc(C(C)(C)C)c(O)c(C(C)(C)C)c1
MDA production [nM/mg proteins]: 0.51
--
compound: CC(C)(C)c1cc(SCCCN2CCC3(CC2)CNC(=O)O3)cc(C(C)(C)C)c1O
MDA production [nM/mg proteins]: 0
--
compound: CC(C)(Sc1cc(C(C)(C)C)c(O)c(C(C)(C)C)c1)Sc1cc(C(C)(C)C)c(O)c(C(C)(C)C)c1 [probucol, reference compound]
MDA production [nM/mg proteins]: 3.50

Short answer for CC(C)(C)c1cc(SCC(O)CN2CCC3(CC2)CNC(=O)O3)cc(C(C)(C)C)c1O (racemic) : MDA production was 1.27

# credit: patent US5206247A
